System: V-C8 + BRCA2 (BRCA2-proficient hamster cells)
Experiment: normalised cell viability (fraction of plate median); higher = more viable cells (less toxic)
Details: treatment time: 3 days; 5 µM
The full ranking holds about 1,300 compounds; the median of “normalised cell viability” is about 1, and the lowest 2% start at about 0.15. The sample as a whole holds a higher share of the lowest values than the screen did.
Lab note: cut-off is 1. Strictly less in normalised cell viability is Satisfied. Exactly 1 or more is Not satisfied.

Prompt: Say whether its normalised cell viability is strictly beneath 1. Entry: `N=C(NCCCCCCNC(=N)NC(=N)Nc1ccc(Cl)cc1)NC(=N)Nc1ccc(Cl)cc1`
Response: Satisfied

Prompt: Cool, now `CC1(C)OC(=O)NC1=O`
Response: Not satisfied

Prompt: Cool, now C[C@@H]1CCC[C@H](C)N1NC(=O)c1ccc(Cl)c(S(N)(=O)=O)c1 [Clopamide]
Response: Not satisfied

Prompt: Cool, now `O=C(Oc1cccc2cccnc12)c1ccccc1`
Response: Satisfied

Prompt: Cool, now O=C1c2cccc(O)c2C(=O)c2c(O)cccc21 [1,8-Dihydroxyanthraquinone]
Response: Satisfied

Prompt: Cool, now `CN(N=O)C(=O)N[C@@H](C=O)[C@@H](O)[C@H](O)[C@H](O)CO`
Response: Not satisfied

Prompt: Cool, now OCC(O)CN1CCN(c2ccccc2)CC1 (racemic) [Dropropizine (R,S)]
Response: Not satisfied

Recorded values, source the supplement of paper PMC6609913.
